- Condition Label: 25 °C
# maps each entry to its solubility
Your answer should be a plain number; it is taken to be in mM.

Previously resolved entries follow.
CC(C)C1OC(=O)c2ccccc21 (stereo unspecified) ... 5.54
CCCCCCCCCNC(=O)c1cccnc1 ... 0.725

For record NC(=O)Nc1ccc(Br)cc1 the listed solubility is 23.2

* * *

- Condition Label: 22 °C
Quantity Name: solubility (mM)
# output: bare number, implied unit mM

Recorded results for 4 molecules are shown here.
O=[N+]([O-])c1cccc(P(=O)(O)O)c1 ... 4830
COc1cc2nccnc2c(N)c1OC ... 19.5
O=C1CCCCCCCCCCCCCCCCCN1 ... 1.42
C[C@](N)(C(=O)O)c1ccccc1 ... 291

// Nc1c(Br)cc(Br)c(S(=O)(=O)O)c1Br : solubility value = 324

* * *

- Condition Label: 25 °C
Recorded solubility values for a group of molecules are listed next.
# unit: mM | format: bare number

CCCCOC(=O)NS(N)(=O)=O ... 91.7
Oc1c(Cl)cc(Cl)cc1Cc1ccccc1 ... 0.0229
CCc1c[nH]c(=O)[nH]c1=O ... 11.4
CCSC(=S)N[C@@H](CC(=O)O)C(=O)O ... 41.1
CCC(NC=O)C(=O)O (configuration not stated) ... 256
CCN[C@@H](C)C(=O)O (racemic) ... 4490
O=[N+]([O-])c1cc(CCO)ccc1O ... 69.9
CC1OC(=O)c2cc([N+](=O)[O-])ccc21 (configuration not stated) ... 2.42

What the record says about CC(C)(CCC(C)(C)CC(=O)O)CC(=O)O : solubility is 0.738

solubility recorded for this molecule, CCCCCCCCOCCO , is 7.5

The measured solubility associated with CCCOCCC(=O)OC reads 233

solubility reported for this molecule C[Si](C)(C)CCN : 15.6

* * *

- Condition Label: 30 °C
In this section we review reported log10 of solubility values for a set of molecules.
Friendly reminder: values = log10 of solubility, unit mM.

CCCCCCOC(=O)c1ccc(O)cc1 ... -0.95

Measured log10 of solubility of O=C(O)CCCCCc1ccccc1 : 0.40

molecule COC(C)C(C)Cl (centres undefined) , log10 of solubility observed: 1.00

log10 of solubility measured on CN(C)C(=O)c1ccccc1C(=O)N(C)C = 3.51

log10 of solubility recorded for this molecule, COC(=O)c1ccc(O)c(Cl)c1 , is 0.13

* * *

- Condition Label: 25 °C
Quantity Name: solubility (mM)
Report only the number, with the unit mM understood.

In the examples that follow, each entry is paired with its recorded solubility.
ON=C1C=CC(=NO)c2ncccc21 ... 0.159
O=C(O)c1ccc(NC(=O)c2cccnc2)cc1 ... 0.826
O=C(O)c1ccc(Br)c([N+](=O)[O-])c1 ... 1.08
NC(=O)c1ccc(S(N)(=O)=O)cc1 ... 4.99
Cc1cc(C)c(C)cn1 ... 165

Please fill in: solubility reported for CCCCCOC(=O)c1cccnc1 = 4.19

For record CCCCCCCC(C(=O)O)C(=O)O the listed solubility is 9.1

get_value(item= Cc1ccc(S(C)(=O)=O)cc1 , readout=solubility) returns 10.3

* * *

- Condition Label: 30 °C
Returns yes (1) if the recorded solubility is greater than or equal to 0.7 mM, and no (0) otherwise.

Example entries and their recorded answers appear below.
CS(=O)(=O)NS(C)(=O)=O ... yes (1)
CCCCOC(=O)c1ccc(O)c(I)c1 ... no (0)
CCCCCCCCOC(=O)c1ccc(O)cc1 ... no (0)
CCCCCCCCS(=O)(=O)NS(=O)(=O)CCCCCCCC ... no (0)
CCCOC(=O)CO[N+](=O)[O-] ... yes (1)
CN(C)C(=O)c1cccc(C(=O)N(C)C)c1 ... yes (1)

Input: Tell me whether solubility is at least 0.7 mM here: CCCCCCCOC(=O)c1ccc(O)cc1
Output: no (0)

Input: I'd appreciate it if you could say whether CCCCCOC(=O)c1ccc(O)cc1 has solubility at least equal to 0.7 mM.
Output: no (0)

Input: API: above_or_equal(metric=solubility, cutoff=0.7 mM) for item COC(=O)CNC(=O)c1ccccc1
Output: yes (1)

Input: Exam item: decide whether the reported solubility for CCn1cnc2c1c(=O)n(C)c(=O)n2C is at least 0.7 mM.
Output: yes (1)

Input: # check: solubility of CCOC(=O)c1ccc(O)c(Cl)c1 is greater than or equal to 0.7 mM
Output: no (0)

Input: Please check the record CCn1c(=O)c2c(ncn2C)n(C)c1=O and state if its solubility is at or above 0.7 mM.
Output: yes (1)

Input: Test whether the compound CCCOC(=O)c1ccc(O)c(I)c1 records solubility of 0.7 mM or higher.
Output: no (0)
